The origin of these recorded values is the supplement of paper PMC9233669.

# Tested on: biotinyl-Trp-oxazolone
# procedure-text: self-aminoacylation, catalytic enhancement (BWO) (fold over background); higher = more active; k-Seq, kA / k0A0; sequences stand for … in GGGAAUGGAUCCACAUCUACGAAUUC…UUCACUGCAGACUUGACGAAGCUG
Variants at the floor of the assay were thinned out.
Overview of recorded self-aminoacylation for various sequences
// response body must contain only the number

For orientation, consider the following solved cases.
| item-sequence | parameter | quantitative-result |
| --- | --- | --- |
| AUUCACCUAGGGCAUCGGGUU [Fam2.2 aminoacylation ribozyme variant] | self-aminoacylation | 2.78 |
| AGUCACCUAGGUCAUUGGGUG [Fam2.2 aminoacylation ribozyme variant] | self-aminoacylation | 3.42 |
| AUUCACCUCGGUUAUCGGGUG [Fam2.2 aminoacylation ribozyme variant] | self-aminoacylation | 7.82 |

State its self-aminoacylation for this sequence: CCACUCUUCAAGCAAUCGAUC [Fam1B.1 aminoacylation ribozyme variant]
0.516

Specify measured self-aminoacylation for CUACUUCAUACAAUCGGUCUU [Fam1A.1 aminoacylation ribozyme variant] .
0.491

Provide measured self-aminoacylation value, entry: AGUCAUCUAGGUCAUCGGGUG [Fam2.2 aminoacylation ribozyme variant]
9.27

Answer with reported self-aminoacylation of AUUUACCUAGGUCAUCGAGUG [Fam2.2 aminoacylation ribozyme variant]
5.73

Please list self-aminoacylation recorded for the sequence AAGUUUGCUAUUAGUCGCUAG [Fam3.1 aminoacylation ribozyme variant]
0.805

Read the entry AAGUUUGCAAAUAGUAGCAAG [Fam3.1 aminoacylation ribozyme variant] and write its reported self-aminoacylation.
0.923

Report self-aminoacylation, nothing else, for this sequence: AUUCGCCUAGGUCUUCGGGUG [Fam2.2 aminoacylation ribozyme variant]
9

Determine from records and report self-aminoacylation for AAGUUUGCGAAUGGUCGCAAG [Fam3.1 aminoacylation ribozyme variant]
1.47

Write down self-aminoacylation measured for item AUUAGCCUGGUGAUCGAGUGA [Fam2.1 aminoacylation ribozyme variant]
8.57

Item CUAUUUCAAACAAUCAGUCUG [Fam1A.1 aminoacylation ribozyme variant] : provide self-aminoacylation
1.7

Return the recorded self-aminoacylation value; entry: AUUACCCAGGUCAUCGAGUGC [Fam2.1 aminoacylation ribozyme variant]
0.852

Respond only with self-aminoacylation recorded for AAGUCUGCUAAUAGUCGCGAG [Fam3.1 aminoacylation ribozyme variant]
3.06

Entry AUUCACCUAGGUCAUCGGUGG [Fam2.2 aminoacylation ribozyme variant] needs its self-aminoacylation filled in; supply it.
1.81

Dear colleague, please send me the reported self-aminoacylation for AAGUUCGCUAAUAUUCGCAAG [Fam3.1 aminoacylation ribozyme variant] when you can.
1.25

Write down self-aminoacylation measured for item CCACGCGUCAAGCAAUCGGUC [Fam1B.1 aminoacylation ribozyme variant]
0.802
